Catalogue of molecules with associated cytotoxicity at 48 h, 25 µM
Test Method Notes: Cytotoxicity against HEK293T cells assessed as inhibition of cell viability at 25 uM after 48 hrs by MTT assay relative to control
Type: cell-based, HEK-293T
Stated Conditions: human, read-out: INH
Reported Property: cytotoxicity at 48 h, 25 µM

[[record]]
molecule = "COc1c(-c2ccc(C#N)cc2)c(C)nn1-c1ccccc1"
result = "57.8%"

[[record]]
molecule = "COc1c(C(=O)NCc2ccc(Cl)cc2)c(C)nn1-c1ccccc1"
result = "49.4%"

[[record]]
molecule = "COc1ccc(CNC(=O)c2c(C)nn(-c3ccccc3)c2OC)cc1"
result = "44.3%"

[[record]]
molecule = "COc1c(-c2cccc(C)c2)c(C)nn1-c1ccccc1"
result = "70.5%"

[[record]]
molecule = "COc1c(C(=O)NC(C)c2ccccc2)c(C)nn1-c1ccccc1 (stereo unspecified)"
result = "31.8%"

[[record]]
molecule = "COc1c(C(=O)NCc2ccccc2)c(C)nn1-c1ccccc1"
result = "22.2%"


All figures here come from ChEMBL document CHEMBL3792344.
